# test name: Cytotoxicity against human SK-RC-28 cells expressing HIF1alpha after 2 days by XTT assay
# Type: functional, cell-based
# condition details: 48 h
Recorded measurements of IC50, one per entry
Expressed in µM, but write only the number.

compound | value observed
C1=C/[C@H]2[C@@H]3CCCC[C@H]3C[C@@H]2NCCCN[C@@H]2C[C@@H]3CCCC[C@H]3[C@@H]2/C=C/1 [HALICLONADIAMINE] | 16.1
C/C=C(/C)C(=O)OCC1C2=C(C=CN1C=O)C(=O)C(C)=C(OC)C2=O (mixture of isomers) | 38.7
C#C[C@@H](O)/C=C/CCCCCCC#C[C@H](O)C#C/C=C/CC/C=C\CCCC/C=C\CCCCCCCCCCCCC/C=C/[C@@H](O)C#C [NEOPETROFORMYNE A] | 35.1

QUERY: State, in one line, measured IC50 of CC1(C)CCC[C@]2(C)[C@H]3C=C4C=C(O)C(=O)C=C4O[C@@]3(C)CC[C@@H]12 [PUUPEHENONE]
RESULT: 15.5
